Tested on: Acinetobacter baumannii ABA19-1
Type: cell-based
Conditions: ABA19-1
Bridge positions count the residues as written; N and C are the ends. Square brackets hold non-standard residues; d marks the D form. Peptide text beside a SMILES is read from it. * marks the point of attachment. Heptanoyl(6-Me) = CC(C)CCCCC(=O)*; dDab = NCC[C@@H](N)C(=O)O; Heptanoyl = CCCCCCC(=O)*; Octanoyl = CCCCCCCC(=O)*; Orn = NCCC[C@H](N)C(=O)O; Dab = NCC[C@H](N)C(=O)O; Dap = NC[C@H](N)C(=O)O
I'd appreciate it if you could supply MIC values for the items below.
Express it in µg/mL; write the number only.

# return recorded MIC for input CCCCCCC(=O)N[C@@H](CN)C(=O)N[C@H](C(=O)N[C@H](CCN)C(=O)N[C@H]1CCNC(=O)[C@H]([C@@H](C)O)NC(=O)[C@H](CCN)NC(=O)[C@H](CCN)NC(=O)[C@H](CC(C)C)NC(=O)[C@@H](Cc2ccccc2)NC(=O)[C@H](CCN)NC1=O)[C@@H](C)O [Compound 94] (Heptanoyl-[Dap]T[dDab][Dab][Dab][dF]L[Dab][Dab]T; lactam 4-C)
0.03

# return recorded MIC for input CCCCCCCC(=O)N[C@@H](CCN)C(=O)N[C@H](C(=O)N[C@@H](CCN)C(=O)N[C@H]1CCNC(=O)[C@H]([C@@H](C)O)NC(=O)[C@H](CCN)NC(=O)[C@H](CCN)NC(=O)[C@H]([C@@H](C)O)NC(=O)[C@@H](Cc2ccccc2)NC(=O)[C@H](CCN)NC1=O)[C@@H](C)O [Compound 18] (Octanoyl-[Dab]T[Dab][Dab][Dab][dF]T[Dab][Dab]T; lactam 4-C)
0.5

# return recorded MIC for input CC(C)CCCCC(=O)N[C@@H](CCCN)C(=O)N[C@H](C(=O)N[C@H](CO)C(=O)N[C@H]1CCNC(=O)[C@H]([C@@H](C)O)NC(=O)[C@H](CCN)NC(=O)[C@H](CCN)NC(=O)[C@H]([C@@H](C)O)NC(=O)[C@@H](Cc2ccccc2)NC(=O)[C@H](CCN)NC1=O)[C@@H](C)O [Compound 57] ({Heptanoyl(6-Me)}-[Orn]T[dS][Dab][Dab][dF]T[Dab][Dab]T; lactam 4-C)
0.25

* * *

System: Escherichia coli ATCC BAA-2523
Assay type: cell-based
Settings: ATCC BAA-2523
Method: The minimal inhibitory concentration (MIC) was determined by the broth microdilution method according to the recommended procedures of the Clinical and Laboratory Standards Institute (CLSI). An appropriate amount of the cyclic lipopeptide compounds prepared in Examples 1-120 and the reference standards were weighed and dissolved in sterile pure water. […]
Numbered stars: 1 amine (or outer) side, 2 acyl side, 3 side chain; on linkers, the order of the positions; unused ones are H or OH. Bridge positions count the residues as written; N and C are the ends. Square brackets hold non-standard residues; d marks the D form. Peptide text beside a SMILES is read from it. * marks the point of attachment. X3 = O=C([C@@H](Cc1ccc(CS(=O)(=O)O)cc1)N[*:1])[*:2]; Heptanoyl(6-Me) = CC(C)CCCCC(=O)*; Nonanoyl = CCCCCCCCC(=O)*; Orn = NCCC[C@H](N)C(=O)O; Dab = NCC[C@H](N)C(=O)O; Dap = NC[C@H](N)C(=O)O
Value Kind: MIC (µg/mL)
Express it in µg/mL; write the number only.

# return recorded MIC for input CCCCCCCCC(=O)N[C@@H](CCN)C(=O)N[C@H](C(=O)N[C@@H](CCCN)C(=O)N[C@H]1CCNC(=O)[C@H]([C@@H](C)O)NC(=O)[C@H](CCN)NC(=O)[C@H](CCN)NC(=O)[C@H](CC(C)C)NC(=O)[C@@H](Cc2ccccc2)NC(=O)[C@H](CCN)NC1=O)[C@@H](C)O [Compound 50] (Nonanoyl-[Dab]T[Orn][Dab][Dab][dF]L[Dab][Dab]T; lactam 4-C)
0.06

# return recorded MIC for input CC(C)CCCCC(=O)N[C@@H](CCN)C(=O)N[C@H](C(=O)N[C@@H](CN)C(=O)N[C@H]1CCNC(=O)[C@H]([C@@H](C)O)NC(=O)[C@H](CCN)NC(=O)[C@H](CCN)NC(=O)[C@H]([C@@H](C)O)NC(=O)[C@@H](Cc2ccc(CS(=O)(=O)O)cc2)NC(=O)[C@H](CCN)NC1=O)[C@@H](C)O [Compound 116] ({Heptanoyl(6-Me)}-[Dab]T[Dap][Dab][Dab][X3]T[Dab][Dab]T; lactam 4-C)
0.03

* * *

System: Pseudomonas aeruginosa PAE19-3
Assay type: cell-based
Conditions: PAE19-3
Bridge positions count the residues as written; N and C are the ends. Square brackets hold non-standard residues; d marks the D form. Peptide text beside a SMILES is read from it. * marks the point of attachment. Heptanoyl(6-Me) = CC(C)CCCCC(=O)*; dOrn = NCCC[C@@H](N)C(=O)O; Nonanoyl = CCCCCCCCC(=O)*; dDab = NCC[C@@H](N)C(=O)O; Heptanoyl = CCCCCCC(=O)*; Octanoyl = CCCCCCCC(=O)*; Orn = NCCC[C@H](N)C(=O)O; dDap = NC[C@@H](N)C(=O)O; Dab = NCC[C@H](N)C(=O)O; Dap = NC[C@H](N)C(=O)O
Value Kind: MIC
Report field: quantity (unit follows the number).

# return recorded MIC for input CCCCCCCCC(=O)N[C@@H](CCN)C(=O)N[C@H](C(=O)N[C@H](CN)C(=O)N[C@H]1CCNC(=O)[C@H]([C@@H](C)O)NC(=O)[C@H](CCN)NC(=O)[C@H](CCN)NC(=O)[C@H]([C@@H](C)O)NC(=O)[C@@H](Cc2ccccc2)NC(=O)[C@H](CCN)NC1=O)[C@@H](C)O [Compound 5] (Nonanoyl-[Dab]T[dDap][Dab][Dab][dF]T[Dab][Dab]T; lactam 4-C)
0.5 µg/mL

# return recorded MIC for input CCCCCCC(=O)N[C@@H](CCCN)C(=O)N[C@H](C(=O)N[C@H](CO)C(=O)N[C@H]1CCNC(=O)[C@H]([C@@H](C)O)NC(=O)[C@H](CCN)NC(=O)[C@H](CCN)NC(=O)[C@H]([C@@H](C)O)NC(=O)[C@@H](Cc2ccccc2)NC(=O)[C@H](CCN)NC1=O)[C@@H](C)O [Compound 59] (Heptanoyl-[Orn]T[dS][Dab][Dab][dF]T[Dab][Dab]T; lactam 4-C)
8 µg/mL

# return recorded MIC for input CCCCCCC(=O)N[C@@H](CN)C(=O)N[C@H](C(=O)N[C@H](CCN)C(=O)N[C@H]1CCNC(=O)[C@H]([C@@H](C)O)NC(=O)[C@H](CCN)NC(=O)[C@H](CCN)NC(=O)[C@H](CC(C)C)NC(=O)[C@@H](CC(C)C)NC(=O)[C@H](CCN)NC1=O)[C@@H](C)O [Compound 99] (Heptanoyl-[Dap]T[dDab][Dab][Dab][dL]L[Dab][Dab]T; lactam 4-C)
1 µg/mL

# return recorded MIC for input CC(C)CCCCC(=O)N[C@@H](CCN)C(=O)N[C@H](C(=O)N[C@H](CO)C(=O)N[C@H]1CCNC(=O)[C@H]([C@@H](C)O)NC(=O)[C@H](CCN)NC(=O)[C@H](CCCN)NC(=O)[C@H]([C@@H](C)O)NC(=O)[C@@H](Cc2ccccc2)NC(=O)[C@H](CCN)NC1=O)[C@@H](C)O [Compound 77] ({Heptanoyl(6-Me)}-[Dab]T[dS][Dab][Dab][dF]T[Orn][Dab]T; lactam 4-C)
64 µg/mL

# return recorded MIC for input CCCCCCC(=O)N[C@@H](CCN)C(=O)N[C@H](C(=O)N[C@H](CN)C(=O)N[C@H]1CCNC(=O)[C@H]([C@@H](C)O)NC(=O)[C@H](CCN)NC(=O)[C@H](CCN)NC(=O)[C@H](CC(C)C)NC(=O)[C@@H](Cc2ccccc2)NC(=O)[C@H](CCN)NC1=O)[C@@H](C)O [Compound 34] (Heptanoyl-[Dab]T[dDap][Dab][Dab][dF]L[Dab][Dab]T; lactam 4-C)
0.5 µg/mL

# return recorded MIC for input CCCCCCCC(=O)N[C@@H](CCN)C(=O)N[C@H](C(=O)N[C@H](CCCN)C(=O)N[C@H]1CCNC(=O)[C@H]([C@@H](C)O)NC(=O)[C@H](CCN)NC(=O)[C@H](CCN)NC(=O)[C@H]([C@@H](C)O)NC(=O)[C@@H](Cc2ccccc2)NC(=O)[C@H](CCN)NC1=O)[C@@H](C)O [Compound 23] (Octanoyl-[Dab]T[dOrn][Dab][Dab][dF]T[Dab][Dab]T; lactam 4-C)
1 µg/mL
